# Tgt: T1, human calcitonin receptor (human, UniProt P30988 25-474)
# T1 construct: whole, on cells; also called hCTR; hCT
# T1 sequence (looked up): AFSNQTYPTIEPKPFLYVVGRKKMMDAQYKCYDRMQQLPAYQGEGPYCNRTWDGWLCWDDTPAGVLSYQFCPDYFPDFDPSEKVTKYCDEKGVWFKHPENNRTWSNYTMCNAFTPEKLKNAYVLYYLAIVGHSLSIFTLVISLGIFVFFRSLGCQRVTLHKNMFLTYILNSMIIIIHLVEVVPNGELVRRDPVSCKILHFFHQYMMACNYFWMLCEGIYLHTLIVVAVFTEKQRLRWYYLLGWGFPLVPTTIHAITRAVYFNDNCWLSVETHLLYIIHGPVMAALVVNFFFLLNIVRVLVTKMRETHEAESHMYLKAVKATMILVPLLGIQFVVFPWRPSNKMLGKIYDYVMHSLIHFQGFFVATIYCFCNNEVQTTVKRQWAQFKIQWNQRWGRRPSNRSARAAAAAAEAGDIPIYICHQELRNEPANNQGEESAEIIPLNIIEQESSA
# Measurement Protocol: SPA competition against 125I-calcitonin, membranes of BHK cells with human calcitonin receptor (Assay VII)
Numbered stars: 1 amine (or outer) side, 2 acyl side, 3 side chain; on linkers, the order of the positions; unused ones are H or OH. Bridge positions count the residues as written; N and C are the ends. Side chains are listed from the residue outwards. Ends that are not written are not given here. * marks the point of attachment. C20 diacid = O=C(O)CCCCCCCCCCCCCCCCCCC(=O)*; γGlu = O=C(O)[C@H](CCC(=O)[*:2])N[*:1]
Recorded Metric: IC50 (nM)

{"columns": ["Binder", "IC50 [nM]"],
 "data": [
  ["K([γGlu-γGlu-C20 diacid])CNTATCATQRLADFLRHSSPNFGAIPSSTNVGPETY-NH2 (disulfide 2-7)", 8.56]
]}

1: K([γGlu-C20 diacid])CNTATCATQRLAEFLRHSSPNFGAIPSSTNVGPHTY-NH2 (disulfide 2-7)
2: K([γGlu-γGlu-C20 diacid])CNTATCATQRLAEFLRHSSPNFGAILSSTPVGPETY-NH2 (disulfide 2-7 (inferred))
3: K([γGlu-γGlu-C20 diacid])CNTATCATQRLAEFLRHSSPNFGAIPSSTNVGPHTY-NH2 (disulfide 2-7 (inferred))
Which order do these items take when sorted by rising IC50? List them. Returns: the labels listed in the requested order.
2, 1, 3
(2: 1.56 nM, 1: 3.8 nM, 3: 10.3 nM)
